Tested on: Mus musculus
Experiment notes: Analgesic activity in ICR mouse assessed as pain threshold variation at 25 umol/kg, po administered as single dose measured after 120 mins by tail flick test relative to control
Assay type: functional
Value type: Activity (%)

Compound: CC[C@H](C)[C@H](NC(=O)CN(c1nc(Cl)nc2[nH]cnc12)C1CC1)C(=O)O
Measurement unit: %
Observed: 21.42
//
Compound: CSCC[C@H](NC(=O)CN(c1ncnc2c1ncn2C1CCCCO1)C1CC1)C(=O)OCc1ccccc1 (stereo partly drawn)
Measurement unit: %
Observed: 28.66
//
Compound: NCCCC[C@H](NC(=O)CN(c1nc(Cl)nc2[nH]cnc12)C1CC1)C(=O)OCc1ccccc1
Measurement unit: %
Observed: 16.79
//
Compound: O=C(CN(c1ncnc2c1ncn2C1CCCCO1)C1CC1)N[C@@H](Cc1c[nH]c2ccccc12)C(=O)OCc1ccccc1 (stereo partly drawn)
Measurement unit: %
Observed: 22.58
//
Compound: N=C(N)NCCC[C@H](NC(=O)CN(c1nc(Cl)nc2[nH]cnc12)C1CC1)C(=O)OCc1ccccc1
Measurement unit: %
Observed: 10.24
//
Compound: CC(C)C[C@H](NC(=O)CN(c1nc(Cl)nc2[nH]cnc12)C1CC1)C(=O)OCc1ccccc1
Measurement unit: %
Observed: 8.58
//
Compound: O=C(O)C[C@H](NC(=O)CN(c1nc(Cl)nc2[nH]cnc12)C1CC1)C(=O)O
Measurement unit: %
Observed: 21.95
//
Compound: O=C(CN(c1ncnc2c1ncn2C1CCCCO1)C1CC1)N[C@@H](CO)C(=O)OCc1ccccc1 (stereo partly drawn)
Measurement unit: %
Observed: 29.2
